Value source: PubChem BioAssay AID1508625

test: small molecules boosting NK-mediated OVCAR3 lysis – imaging, primary NK cells, calcein-AM imaging, primary screen (AID 1508625); settings: OVCAR3 lysis by primary NK cells, at 5 µM;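 further: compound given to NK cells 16 h before adding targets at 1.5 to 1 ratio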
measure-name: corrected activity, negative = more killing (%)
Form entry: value (%) — number only.

{"columns": ["compound", "readout-number"],
 "data": [
  ["O=C(CNC(=O)OCc1ccccc1)Oc1cc2oc(=O)c3c(c2cc1Cl)CCC3", -2.23],
  ["Cc1ccc(-n2cnc3cc(C(=O)NC4CCCC4)ccc32)cc1Cl", -3.42],
  ["O=C1C(=O)N(Cc2cccnc2)C(c2ccncc2)C1=C(O)c1ccc(F)cc1 (stereo unspecified)", -3.73],
  ["CCC(Oc1ccccc1)C(=O)N1CCC(C(N)=O)CC1 (stereo unspecified)", -2.95],
  ["COC(=O)c1ccc(COC(=O)c2ccccc2Cl)cc1", -2.71]
]}

Exercise: Tell me the measured corrected activity, negative = more killing of COc1cccc(C(=O)N2CCN(CC3CC=CCC3)CC2)c1OC (stereo unspecified) , please.
Solution: -3.28

Exercise: Then CCC1CCCCN1C(=O)c1sc2ncn(Cc3ccccc3F)c(=O)c2c1C (stereo unspecified) ?
Solution: -3.67

Exercise: Then Cc1ccccc1C(=NS(=O)(=O)c1ccc(Br)cc1)Nc1ccccc1 ?
Solution: -3.32

Exercise: Then CCN(CC)c1ccc(C=NS(=O)(=O)c2ccc(C)cc2)cc1 ?
Solution: -5.15

Exercise: Then Cc1cc(Cl)nc(Cl)c1C(=O)O ?
Solution: 0.175

Exercise: Then CCCCOc1ccccc1C1NC(=O)NC(C)=C1C(=O)OCC(F)(F)F (stereo unspecified) ?
Solution: -3.61

---

assay: small molecules boosting NK-mediated OVCAR3 lysis – imaging, primary NK cells, calcein-AM imaging, primary screen (AID 1508625); details: OVCAR3 lysis by primary NK cells, at 5 µM;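 further: compound given to NK cells 16 h before adding targets at 1.5 to 1 ratio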
Catalogue of compounds with associated corrected activity, negative = more killing
Form entry: value (%) — number only.

Reference set, count: 4
{"columns": ["compound", "readout-number"],
 "data": [
  ["O=C(NN=Cc1ccc(O)cc1)c1cc(-c2ccc3ccccc3c2)n[nH]1", 0.541],
  ["Cc1cccc(C(=O)N2N=C(C(F)(F)F)CC2(O)C(C)(C)C)c1 (stereo not drawn)", -2.49],
  ["CCc1ccc(NC(=O)CCNC(=O)Cn2cnc3ccccc3c2=O)cc1", 0.879],
  ["CC(=O)Oc1ccc(-c2nc3ccc(OC(C)=O)cc3c(=O)o2)cc1", -3.33]
]}

Exercise: Tell me the measured corrected activity, negative = more killing of Cc1cc(Nc2cccc(C(=O)O)c2)n2ncnc2n1 , please.
Solution: 1.47

Exercise: Then O=C1C(=O)N(CCO)C(c2ccc(Br)cc2)C1=C(O)c1ccccc1 (stereo not drawn) ?
Solution: -2.24

Exercise: Then Cc1cccc(N2C(=O)c3ccc(NC(=O)c4ccc(Br)cc4)cc3C2=O)c1 ?
Solution: -3.53

Exercise: Then S=C1CSc2ccccc2N1 ?
Solution: -1.4

Exercise: Then CCOC(=O)Cc1c(C)nc2cc(-c3ccc(C(C)(C)C)cc3)[nH]n2c1=O ?
Solution: -7.93

Exercise: Then Cc1ccc(S(=O)(=O)n2cnc3ccccc32)cc1C ?
Solution: -9

Exercise: Then COc1ccccc1CNC(=O)C(C)Oc1cccc(Cl)c1 (stereo not drawn) ?
Solution: -1.41

---

experiment: small molecules boosting NK-mediated OVCAR3 lysis – imaging, primary NK cells, calcein-AM imaging, primary screen (AID 1508625); conditions: OVCAR3 lysis by primary NK cells, at 5 µM;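 further: compound given to NK cells 16 h before adding targets at 1.5 to 1 ratio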
Catalogue of compounds with associated corrected activity, negative = more killing
Form entry: value (%) — number only.

{"columns": ["compound", "units-text", "readout-number"],
 "data": [
  ["COC(=O)c1ccc(COC(=O)c2ccncc2)cc1", "%", -0.707],
  ["COc1ccc(N2C(=O)c3ccc(C)cc3C2=O)cc1OC", "%", -6.75],
  ["Cc1c(NC(=O)CCCCCN2C(=O)c3ccccc3C2=O)c(=O)n(-c2ccccc2)n1C", "%", -6.57],
  ["COc1ccccc1N1C(=O)C2C(C(C)=O)=NN(c3ccc(Cl)cc3)C2C1=O (stereo unspecified)", "%", -1.87],
  ["NC(C(=O)O)C(O)c1cccc([N+](=O)[O-])c1 (stereo unspecified)", "%", -0.723]
]}

Exercise: Tell me the measured corrected activity, negative = more killing of O=C1c2ccccc2C(=O)N1CCCCCCN1CCN(c2cccc(Cl)c2)CC1 , please.
Solution: -4.02

---

Catalogue of compounds with associated corrected activity, negative = more killing
experiment: small molecules boosting NK-mediated OVCAR3 lysis – imaging, primary NK cells, calcein-AM imaging, primary screen (AID 1508625); details: OVCAR3 lysis by primary NK cells, at 5 µM;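 further: compound given to NK cells 16 h before adding targets at 1.5 to 1 ratio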
Form entry: value (%) — number only.

{"columns": ["compound", "readout-number"],
 "data": [
  ["O=C(O)C1C2C=CC(O2)C1C(=O)N1CCC(Cc2ccccc2)CC1 (stereo unspecified)", -3.25],
  ["O=C(NC(=S)NN1CCOCC1)c1ccc(Br)cc1", -1.04],
  ["O=c1c2cc(N3CCCCC3)ccc2[nH]c(=S)n1Cc1ccccc1", -6.78],
  ["C=CCn1c(=S)[nH]c2cc(C(=O)Nc3cccc(C(F)(F)F)c3)ccc2c1=O", -6.01],
  ["CCCCOc1ccc(CN2CCN3CCCC3C2C)cc1 (stereo unspecified)", -3.8],
  ["COC(=O)c1ccc(COC(=O)c2cc3ccccc3oc2=O)cc1", -2.06]
]}

# next compound below
Exercise: Tell me the measured corrected activity, negative = more killing of CCOc1ccc(C(=O)N2CCc3cc(OC)c(OC)cc3C2)cc1 , please.
Solution: -2.29

---

assay: small molecules boosting NK-mediated OVCAR3 lysis – imaging, primary NK cells, calcein-AM imaging, primary screen (AID 1508625); details: OVCAR3 lysis by primary NK cells, at 5 µM;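 further: compound given to NK cells 16 h before adding targets at 1.5 to 1 ratio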
Catalogue of compounds with associated corrected activity, negative = more killing

Reference set, count: 8
{"columns": ["compound", "result"],
 "data": [
  ["COC(=O)c1ccc(-n2nnnc2SCC(=O)Nc2ccc(F)cc2)cc1", "-6.69%"],
  ["COc1ccc(Cl)cc1NC(=O)CSc1nc2c([nH]c3ccccc32)c(=O)n1C", "-2.37%"],
  ["Cc1ccc(C)c(C(=O)COC(=O)CNS(=O)(=O)c2ccccc2)c1", "-1.55%"],
  ["Cc1cc(OCCN2CCCCCC2)ccc1[N+](=O)[O-]", "-3.28%"],
  ["O=C(CCCN1C(=O)c2cccc3cccc(c23)C1=O)NCCO", "-1.75%"],
  ["Cc1cccc(C)c1NC(=O)c1sc2[nH]c(=O)c(C(=O)O)cc2c1N", "-3.74%"],
  ["C=CCN1C(=O)C(=Cc2ccc(OCc3ccccc3Cl)c(OC)c2)SC1=S", "-6.24%"],
  ["Cc1nc2ccccc2n1Cc1cccc2ccccc12", "-3.88%"]
]}

Exercise: Tell me the measured corrected activity, negative = more killing of O=C(COc1ccc(Br)cc1)NCc1ccco1 , please.
Solution: -0.415%

Exercise: Then CCOc1ccccc1NC(=O)CC1Sc2ccc(C(F)(F)F)cc2NC1=O (stereo unspecified) ?
Solution: -3.99%

Exercise: Then Cc1sc2ncn(CC(=O)Nc3ccc(Oc4ccccc4)cc3)c(=O)c2c1S(=O)(=O)N1CCN(C)CC1 ?
Solution: -6.04%

---

assay: small molecules boosting NK-mediated OVCAR3 lysis – imaging, primary NK cells, calcein-AM imaging, primary screen (AID 1508625); details: OVCAR3 lysis by primary NK cells, at 5 µM; measured here: robust Z-score, single-point normalisation;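 further: compound given to NK cells 16 h before adding targets at 1.5 to 1 ratio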;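 on Z-score: more negative robust z means stronger NK killing of tumor cells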
measure-name: z-score
Answer with the value's number alone.

{"columns": ["compound", "z-score"],
 "data": [
  ["COc1cc(OC)c(OC)cc1CN1CCN(C(=O)c2ccncc2)CC1", -0.992]
]}

Exercise: Tell me the measured z-score of CCN(C(=O)c1c(-c2ccccc2)noc1C)C1CCCCC1 , please.
Solution: -0.905

Exercise: Then Cc1cc(OCCCN2CCCCCC2)ccc1[N+](=O)[O-] ?
Solution: 0.391

Exercise: Then CC(C)c1ccc(CNc2c([N+](=O)[O-])c(=O)oc3ccccc23)cc1 ?
Solution: -0.312

Exercise: Then CSC1CCCCC1(O)CSc1nc2ccccc2o1 (centres undefined) ?
Solution: -1.67

Exercise: Then COc1ccc2c(c1OC)C(=O)OC2CC(=O)c1ccc(C)cc1 (centres undefined) ?
Solution: -1.71

---

experiment: small molecules boosting NK-mediated OVCAR3 lysis – imaging, primary NK cells, calcein-AM imaging, primary screen (AID 1508625); details: OVCAR3 lysis by primary NK cells, at 5 µM;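 further: compound given to NK cells 16 h before adding targets at 1.5 to 1 ratio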
measure-name: corrected activity, negative = more killing (%)
Form entry: value (%) — number only.

Reference set, count: 4
{"columns": ["molecule", "units-text", "readout-number"],
 "data": [
  ["c1ccc2nn(C34CC5CC(CC(C5)C3)C4)nc2c1", "%", -1.32],
  ["COc1c(Cl)cc(Cl)cc1C(=O)n1nc(C)cc1C", "%", -2.7],
  ["O=C(c1cccc(F)c1)N1CCN=C1SCc1ccc(Br)cc1", "%", -4.87],
  ["O=C1C2CCCCC2C(=O)N1c1cccc2ccccc12 (stereo unspecified)", "%", -3.38]
]}

Exercise: Tell me the measured corrected activity, negative = more killing of COC(=O)c1ccc(C)c(NC(=O)c2ccc(C3SCC(=O)N3Cc3ccccc3)cc2)c1 (stereo unspecified) , please.
Solution: -5.82

Exercise: Then CCOC(=O)c1ccc2c(c1)[C@@H]1C=CC[C@@H]1[C@H](c1ccccc1C(F)(F)F)N2 ?
Solution: -3.03

Exercise: Then Cc1ccc([N+](=O)[O-])cc1NS(=O)(=O)c1ccc(Cl)cc1 ?
Solution: 4.17
